B1: Hairpin Ribozyme (parent)
chain: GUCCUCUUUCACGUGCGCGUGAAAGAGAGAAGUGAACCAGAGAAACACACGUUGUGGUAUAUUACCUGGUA

variants of: B1; experiment: self-cleavage, relative activity (ratio to wild type); higher = more cleavage; co-transcriptional
Reported property: self-cleavage
API note: the answer field is a bare number with no unit suffix.

Worked cases, self-cleavage given:
> print(dat)
                     macromolecule.sequence  endpoint.value
1  GUCCUCUUUCACAUGCGCGUGAAAGAGAGAAGUGAACCACAGAAACACACGUUGUGGUAUAUUACCUGGUA [G13A G40C]           0.152
2  UUCCUCUUUCACGUGCGCGUGAAAGAGACAAGUGAACCAGAGAAACACACGUUGUGGUAUAUUACCUGGUA [G1U G29C]           0.109
3  GUCCUCUUUCACGUGCGCGCGAAAGAGAGAAGUGAACCAGAGAAACACACUUUGUGGUAUAUUACCUGGUA [U20C G51U]            1.07
4  GUCCUCUUUCACGUGCGCGUGAAAGAGAGAAGUGAACCAGAGAAACACACUUUGUUGUAUAUUACCUGGUA [G51U G56U]          0.0869
5  GACCUCUUUCACGUGCGCGUGAAAGAGAGGAGUGAACCAGAGAAACACACGUUGUGGUAUAUUACCUGGUA [U2A A30G]           0.442
6  GUCCUCUUUCACGUGCGCGUGAAAGAGAGAAGUGAACCAUAGGAACACACGUUGUGGUAUAUUACCUGGUA [G40U A43G]           0.134

Which self-cleavage is listed for GUCCUCUUUCACGUGCGCGUGAAAGAGAGAAGUGAACCAGAGAAACACACGUUGUGGUAGAUUAUCUGGUA [U60G C65U] ? 0.183

What value of self-cleavage has been recorded for this entry: GUCCUCUGUCACGUGCGCGUGAAAGAGAGAGGUGAACCAGAGAAACACACGUUGUGGUAUAUUACCUGGUA [U8G A31G] 0.47

Requested read-out: self-cleavage. Entry: GUCCUCUUUCUCGUGCGCGUGAAAGAGAGAAGGGAACCAGAGAAACACACGUUGUGGUAUAUUACCUGGUA [A11U U33G] 0.151

Consider the variant GACCUCUUUCACGUGCGCGUGAAAGAGAGAAGUGAACUAGAGAAACACACGUUGUGGUAUAUUACCUGGUA [U2A C38U] and give its measured self-cleavage. 0.14

Would you mind telling me what self-cleavage value was observed for GUCCUAUUUCACGUGCGCGUGAAAGAGAGAAGUUAACCAGAGAAACACACGUUGUGGUAUAUUACCUGGUA [C6A G34U] ? 1

Returns the measured self-cleavage for the input variant. Input: GUCCUCUUUCACGUGCGCGUUAAAGAGAGAAGUGAACCAGAGAAACACACGUGGUGGUAUAUUACCUGGUA [G21U U53G] 0.907

Fill in: self-cleavage of GUCCUCGUUCACGUGCGCCUGAAAGAGAGAAGUGAACCAGAGAAACACACGUUGUGGUAUAUUACCUGGUA [U7G G19C] is ___ 0.592

self-cleavage for GUCCUCUUUCACGUGCGCGUUAAUGAGAGAAGUGAACCAGAGAAACACACGUUGUGGUAUAUUACCUGGUA [G21U A24U] ? 0.78

What does the record list as self-cleavage for GUCCUCUUUCACGUGCGCGUGAAAGAGAGAAGUGAACCAGAGAAACACAUGUUGUGGUAUAUUCCCUGGUA [C50U A64C] ? 0.159

Each recorded value in this set is attributed to the RNAGym collection of RNA variant scans (doi:10.7554/elife.80360).
